Parameter: TGI. Scope: all listed entries.
- Tested on: COLO 205 colon
- ASSAY_EXPLANATION: NCI tumour cell line growth inhibition, 48 h

{"COMPOUND": "O=C(Cc1csc2[n+]1C(=O)/C(=C/c1ccc(Cl)cc1)S2)Nc1ccccc1", "TGI": "30.2 µM"}
{"COMPOUND": "CN1CCC(=C(c2ccc(Cl)cc2)c2ccccn2)CC1", "TGI": "> 100 µM"}
{"COMPOUND": "COc1cc(C(=O)/C=C/c2cccnc2Nc2ccc(Cl)cc2)cc(OC)c1OC", "TGI": "3.47 µM"}
{"COMPOUND": "Nc1nc2c(ncn2C2OC(CO)C(O)C2O)c(=O)o1 (stereo unspecified)", "TGI": "> 100 µM"}
{"COMPOUND": "O=C1CCC2(c3ccccc3)OCC([C@@H](O)c3ccccc3)N12 (stereo partly specified)", "TGI": "> 100 µM"}
{"COMPOUND": "CC1(C)CCC2(C(=O)O)C(O)CC3(C)C(=CCC4C5(C)CCC(OC6OCC(O)C(O)C6OC6OCC(O)C(O)C6OC6OCC(O)C(OC7OC(CO)C(O)C(O)C7O)C6O)C(C)(C)C5CCC43C)C2C1 (stereo unspecified)", "TGI": "> 100 µM"}

----------
- Test system: XF 498 CNS
- ASSAY_EXPLANATION: NCI tumour cell line growth inhibition, 48 h
Parameter: TGI. Scope: all listed entries.
MEASUREMENT_NAME: TGI

{"MOLECULE": "C=C(CN(C)C)C(=O)c1ccccc1", "READING": "29.9 µM"}
{"MOLECULE": "COc1c(CC(C)=O)c2ccccc2n1C(C)=O", "READING": "> 100 µM"}
{"MOLECULE": "CC12CCC(=O)N1[C@@H](c1ccccc1)[C@@H](c1ccccc1)O2 (stereo partly specified)", "READING": "> 100 µM"}
{"MOLECULE": "C/C(=C\\CNc1ncnc2c1ncn2C1CCCCO1)COP(=O)(O)O (stereo unspecified)", "READING": "> 100 µM"}
{"MOLECULE": "COc1ccc(C(=O)C(c2ccc(OC)cc2)C2(O)C(=O)Nc3c(Cl)cc(Cl)cc32)cc1 (stereo unspecified)", "READING": "47.2 µM"}
{"MOLECULE": "CS(=O)(=O)ON1C(=O)c2ccc(N)cc2C1=O", "READING": "> 100 µM"}

----------
- Tested on: SF-268 CNS
- ASSAY_EXPLANATION: NCI tumour cell line growth inhibition, 48 h
Parameter: TGI. Scope: all listed entries.

{"COMPOUND": "COc1cc2c(SCCN(C)C)nc3ccccc3c2c2ccccc12", "OUTPUT_UNIT": "µM", "COMPARATOR": "=", "TGI": 5.39}
{"COMPOUND": "O=C(Cc1csc2[n+]1C(=O)/C(=C/c1ccc(Cl)cc1)S2)Nc1ccccc1", "OUTPUT_UNIT": "µM", "COMPARATOR": "=", "TGI": 78}
{"COMPOUND": "O=C(O)CCC1C(=O)C2CCN1CC2 (stereo not given)", "OUTPUT_UNIT": "µM", "COMPARATOR": ">", "TGI": 100}
{"COMPOUND": "Cn1cc(Nc2nccc(-c3ccc4c(c3)CN(C3COC3)CC[C@H]4NC(=O)c3cn(C(C)(C)C)nn3)n2)cn1", "OUTPUT_UNIT": "µM", "COMPARATOR": ">", "TGI": 100}
{"COMPOUND": "CC(=O)c1ccc(NC(=O)C(=O)CC(=O)c2sc(-n3nc(-c4ccccc4)cc3-c3ccccc3)nc2C)cc1", "OUTPUT_UNIT": "µM", "COMPARATOR": ">", "TGI": 100}

----------
Parameter: TGI. Scope: all listed entries.
- Test system: KM12 colon
- ASSAY_EXPLANATION: NCI tumour cell line growth inhibition, 48 h

{"MOLECULE": "CN1C(=O)[C@@H](CC2CCCC2)N(C2CCCC2)c2nc(Nc3cc(Cl)c(O)c(Cl)c3)ncc21", "OUTPUT_UNIT": "µM", "COMPARATOR": ">", "TGI": 100}
{"MOLECULE": "COC(=O)C1=C(N)C2=C(N)Oc3ccccc3C2CC1=C(C#N)C#N (stereo not given)", "OUTPUT_UNIT": "µM", "COMPARATOR": "=", "TGI": 29.5}
{"MOLECULE": "C/C(=C\\CNc1ncnc2c1ncn2C1CCCCO1)COP(=O)(O)O (stereo not given)", "OUTPUT_UNIT": "µM", "COMPARATOR": ">", "TGI": 100}
{"MOLECULE": "CCN(CC)CCC(=O)c1ccc(Cl)c(Cl)c1", "OUTPUT_UNIT": "µM", "COMPARATOR": ">", "TGI": 100}
{"MOLECULE": "CN1CCN(CCCCCOc2cc(O)c3c(=O)cc(-c4ccccc4)oc3c2)CC1", "OUTPUT_UNIT": "µM", "COMPARATOR": "=", "TGI": 9.66}

----------
- System: KM20L2 colon
- ASSAY_EXPLANATION: NCI tumour cell line growth inhibition, 48 h
MEASUREMENT_NAME: TGI

{"COMPOUND": "Cc1[nH]c2ccccc2c1/C=C/c1c(C)[nH]c2ccccc12", "READING": "> 100 µM"}
{"COMPOUND": "COc1ccc(C(=O)C(c2ccc(OC)cc2)C2(O)C(=O)Nc3c(Cl)cc(Cl)cc32)cc1 (stereo unspecified)", "READING": "68 µM"}
{"COMPOUND": "C=C1C2CCCC1C1(S(C)(=O)=O)CCCCC21O (stereo unspecified)", "READING": "> 100 µM"}
{"COMPOUND": "CS(=O)(=O)ON1C(=O)c2ccc(N)cc2C1=O", "READING": "> 100 µM"}
{"COMPOUND": "CC(=O)[CH-]C(=O)c1ccccc1.CC(=O)[CH-]C(=O)c1ccccc1.CC[C@H](CCC(C)[C@H]1CCC2[C@@H]3CC=C4C[C@@H]([O-])CC[C@]4(C)C3CC[C@@]21C)C(C)C.CC[C@H](CCC(C)[C@H]1CCC2[C@@H]3CC=C4C[C@@H]([O-])CC[C@]4(C)C3CC[C@@]21C)C(C)C.Cl.[Ti+4] (stereo partly specified)", "READING": "> 25 µM"}
{"COMPOUND": "COc1c(CC(C)=O)c2ccccc2n1C(C)=O", "READING": "> 100 µM"}

----------
Parameter: TGI. Scope: all listed entries.
- System: HT29 colon
- ASSAY_EXPLANATION: NCI tumour cell line growth inhibition, 48 h

{"COMPOUND": "CN(C)Cc1ccc(O)c(CN(C)C)n1", "TGI": "> 100 µM"}
{"COMPOUND": "CS(=O)(=O)ON1C(=O)c2ccc(N)cc2C1=O", "TGI": "> 100 µM"}
{"COMPOUND": "CCOC(=O)/C1=C(\\C)N(Cc2ccccc2)C(=O)c2ccccc2C(=O)c2c(OC(C)=O)ccc(OC(C)=O)c21", "TGI": "> 100 µM"}
{"COMPOUND": "CC(=O)O[C@H]1[C@@H](OC2CCCC2(c2ccccc2)c2ccccc2)O[N+]([O-])=C[C@@H]1c1ccccc1 (stereo not given in full)", "TGI": "6.94 µM"}
{"COMPOUND": "CC(=O)NC(CCc1ccc(Cl)c(Cl)c1)c1cccc(O)c(=O)c1 (stereo not given)", "TGI": "22 µM"}
{"COMPOUND": "COC(=O)c1ccccc1C1CN=NC12Cc1cc3c(cc1C2=O)CCC3 (stereo not given)", "TGI": "> 100 µM"}
{"COMPOUND": "O=C(O)CCC1C(=O)C2CCN1CC2 (stereo not given)", "TGI": "> 100 µM"}
{"COMPOUND": "O=C1NC(=NCCc2ccccc2F)S/C1=C\\c1ccc2ncccc2c1", "TGI": "> 25 µM"}
{"COMPOUND": "O=C(CNc1ccc([N+](=O)[O-])cc1)Nn1c(-c2ccccc2)nc2ccccc2c1=O", "TGI": "13.6 µM"}
{"COMPOUND": "Cc1cc2c(cc1Cl)SC(NNC(=O)c1ccccc1)=NS2(=O)=O", "TGI": "> 10 µM"}

----------
- System: SW-620 colon
- ASSAY_EXPLANATION: NCI tumour cell line growth inhibition, 48 h

{"MOLECULE": "COC(=O)C(Cc1c(-c2[nH]c3ccccc3c2CC(NC(C)=O)C(=O)OC)[nH]c2ccccc12)NC(C)=O (configuration not stated)", "TGI": "> 100 µM"}
{"MOLECULE": "CC(=O)Nc1ccc2cc(C#N)c(=O)[nH]c2n1", "TGI": "> 100 µM"}
{"MOLECULE": "CCOP(=O)(OCC)C(Cc1c[nH]c2ccccc12)C(=O)O (configuration not stated)", "TGI": "> 100 µM"}
{"MOLECULE": "CC(C)N(CCNc1nc(C(Cl)(Cl)Cl)nc2cc(Cl)ccc12)C(C)C", "TGI": "3.09 µM"}
{"MOLECULE": "CN1C(=O)C(O)CC1c1ccccc1F (configuration not stated)", "TGI": "> 100 µM"}
{"MOLECULE": "CSc1ncc2c(C#N)c3n(C)c4ccccc4n3c(=O)c2n1", "TGI": "> 100 µM"}
{"MOLECULE": "CC(=O)OC/C=C\\Cn1ncc(=O)[nH]c1=O", "TGI": "40.5 µM"}
{"MOLECULE": "Cc1cc(N(C)c2ccccc2)nc(N(C)c2ccccc2)n1", "TGI": "> 100 µM"}
{"MOLECULE": "C#CCNCC(=O)O", "TGI": "> 100 µM"}
{"MOLECULE": "Cc1c(N)c(C#N)c2n(C)c3ncccc3n2c1=O", "TGI": "> 100 µM"}
{"MOLECULE": "Cc1cccc2c(N)c3cccc(C(=O)NCCNCCN)c3nc12", "TGI": "> 100 µM"}
{"MOLECULE": "Cc1[nH]c(N)nc(=S)c1CCCNc1ccccc1", "TGI": "> 100 µM"}
